# target or test system: CDK2/Cyclin E (Homo sapiens)
# Construct: His; made in house; host or cells: Sf9 insect cells (baculovirus)
# experimental protocol: CDK2/cyclin E kinase assay (GST-Rb phosphorylation);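 further: enzyme source: His-tagged CDK2/cyclin E complex co-expressed recombinantly in Sf9 insect cells using baculovirus constructs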
# Format: biochemical
# condition description: Table 3; read-out: Average IC50 CDK2 cyclin E1
assay metric: IC50 (nM)

smiles_representation=Cc1nc(C)c(-c2ccnc(Nc3ccc(Cc4ccncc4)cc3)n2)s1 data_value=690
smiles_representation=Cc1nc(N(C)C)sc1-c1ccnc(Nc2cccc(Cl)c2)n1 data_value=890
smiles_representation=Cc1nc(N)sc1-c1ccnc(Nc2cccc(F)c2)n1 data_value=380
smiles_representation=Cc1nc(C)c(-c2ccnc(Nc3ccc(C(=O)O)cc3)n2)s1 data_value=740
smiles_representation=Cc1nc(N)sc1-c1ccnc(Nc2ccc(Br)cc2)n1 data_value=1000

(A) COc1cccc(Nc2nccc(-c3sc(N)nc3C)n2)c1
(B) Cc1nc(C)c(-c2ccnc(Nc3ccccc3)n2)s1
Which numeric IC50 is bigger, that of A or that of B ? Indicate which entry you chose by stating its label.
A

(P) Cc1nc(C)c(-c2ccnc(Nc3ccc(S(=O)(=O)O)cc3)n2)s1
(Q) Cc1nc(C)c(-c2ccnc(Nc3cccc(C(F)(F)F)c3)n2)s1
I would appreciate it if you could say which entry, P or Q , has the lower IC50 value. Give the label of your selection.
P

====

# target or test system: CDK1/Cyclin B (Homo sapiens)
# experimental protocol: CDK1/cyclin B kinase assay (GST-Rb phosphorylation)
pIC50: −log10 of the molar value.
assay metric: pIC50

Look over these answered cases.
smiles_representation=COc1ccc(Nc2nccc(-c3sc(C)nc3C)n2)cc1O assay_metric=pIC50 data_value=5.80
smiles_representation=Cc1nc(C)c(-c2ccnc(Nc3cc(Cl)cc(Cl)c3)n2)s1 assay_metric=pIC50 data_value=4.70
smiles_representation=COc1ccc(Nc2nccc(-c3sc(C)nc3C)n2)cc1Cl assay_metric=pIC50 data_value=4.40

(a) Cc1nc(N)sc1-c1ccnc(Nc2cccc(O)c2)n1
(b) Cc1c(-c2ccnc(Nc3ccc(Cl)cc3)n2)sc(=O)n1C
(c) COC(=O)c1ccc(Nc2nccc(-c3sc(C)nc3C)n2)cc1
# sort list by recorded pIC50, greatest to least Provide the labels, sequenced as the question asks.
a, b, c

(a) COc1ccc(Nc2nccc(-c3sc(=O)n(C)c3C)n2)cc1
(b) Cc1c(-c2ccnc(Nc3cccc([N+](=O)[O-])c3)n2)sc(=O)n1C
Higher pIC50 between a and b ? # answer = label of selected item
a
(a: 6.11, b: 5.52)

====

Overview of recorded pIC50 for various molecules
# target or test system: CDK4/Cyclin D1 (Homo sapiens, UniProt P11802)
# Sequence (P11802 whole entry, species assumed): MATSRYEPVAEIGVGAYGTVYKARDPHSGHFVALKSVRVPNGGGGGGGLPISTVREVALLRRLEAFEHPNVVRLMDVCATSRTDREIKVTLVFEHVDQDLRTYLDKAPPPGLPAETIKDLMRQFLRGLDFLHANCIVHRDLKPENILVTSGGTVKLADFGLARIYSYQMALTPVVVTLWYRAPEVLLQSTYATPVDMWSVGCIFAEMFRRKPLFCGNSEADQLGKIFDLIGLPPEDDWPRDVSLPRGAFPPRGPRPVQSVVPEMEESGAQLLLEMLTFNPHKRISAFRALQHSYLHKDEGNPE
# Sequence (P24385 whole entry partner, species assumed): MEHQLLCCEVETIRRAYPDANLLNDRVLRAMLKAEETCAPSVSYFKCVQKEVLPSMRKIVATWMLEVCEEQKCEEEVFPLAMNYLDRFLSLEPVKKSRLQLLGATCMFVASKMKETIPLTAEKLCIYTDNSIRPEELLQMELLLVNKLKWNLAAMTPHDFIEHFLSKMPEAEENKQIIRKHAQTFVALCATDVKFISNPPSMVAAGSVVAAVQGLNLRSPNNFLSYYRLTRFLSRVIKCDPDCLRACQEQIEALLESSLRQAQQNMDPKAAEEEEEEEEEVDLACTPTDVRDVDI
# experimental protocol: CDK4/cyclin D1 kinase assay (GST-Rb phosphorylation)
# Assay type: biochemical
# condition description: Table 3; read-out: Average IC50 CDK4 cyclin D1
pIC50: −log10 of the molar value.

# example entries with known answers
molecule="Cc1nc(N)sc1-c1ccnc(Nc2ccc([N+](=O)[O-])cc2)n1 [Compound 151]" data_value="< 4.30"
molecule="Cc1nc(C)c(-c2ccnc(Nc3ccc(F)cc3F)n2)s1 [Compound 9]" data_value="< 4.30"

Give the measured pIC50 for Cc1nc(C)c(-c2ccnc(Nc3cccc(Cl)c3)n2)s1 [Compound 3]
< 4.30

====

Let's go through some recorded IC50 values for PKC (Homo sapiens) together.

Previously resolved entries follow.
smiles_representation=Cc1nc(C)c(-c2ccnc(Nc3cccc(C#N)c3)n2)s1 target_or_test_system="PKC (Homo sapiens)" data_value="> 50 µM"
smiles_representation=Cc1nc(C)c(-c2ccnc(Nc3ccc(C(F)(F)F)cc3)n2)s1 target_or_test_system="PKC (Homo sapiens)" data_value="> 50 µM"

Consider now this further molecule.
Find IC50 for COc1ccc(Nc2nccc(-c3sc(C)nc3C)n2)cc1 on PKC (Homo sapiens) and write it down.
> 50 µM

====

# target or test system: CDK1/Cyclin B (Homo sapiens)
# experimental protocol: CDK1/cyclin B kinase assay (GST-Rb phosphorylation)
assay metric: IC50 (µM)

Look over these answered cases.
smiles_representation=Cc1c(-c2ccnc(Nc3ccc(N(C)C)cc3)n2)sc(=O)n1C target_or_test_system="CDK1/Cyclin B (Homo sapiens)" assay_metric=IC50 data_value=2.2
smiles_representation=Cc1nc(C)c(-c2ccnc(Nc3ccc(CCO)cc3)n2)s1 target_or_test_system="CDK1/Cyclin B (Homo sapiens)" assay_metric=IC50 data_value=1.9
smiles_representation=Cc1nc(C)c(-c2ccnc(Nc3cccc(O)c3)n2)s1 target_or_test_system="CDK1/Cyclin B (Homo sapiens)" assay_metric=IC50 data_value=1.2
smiles_representation=Cc1nc(C)c(-c2ccnc(Nc3ccccc3F)n2)s1 target_or_test_system="CDK1/Cyclin B (Homo sapiens)" assay_metric=IC50 data_value=12
smiles_representation=Cc1nc(C)c(-c2ccnc(Nc3ccc(S(=O)(=O)O)cc3)n2)s1 target_or_test_system="CDK1/Cyclin B (Homo sapiens)" assay_metric=IC50 data_value=0.048

(a) Cc1nc(N)sc1-c1ccnc(Nc2ccc(I)c([N+](=O)[O-])c2)n1
(b) CCNc1nc(C)c(-c2ccnc(Nc3ccc(Cl)cc3)n2)s1
(c) CCN(CCO)c1ccc(Nc2nccc(-c3sc(C)nc3C)n2)cc1
Arrange the 3 molecules from largest to smallest IC50. # output: labels, in the requested order
b, c, a

====

# target or test system: CDK1/Cyclin B (Homo sapiens, UniProt P06493)
# Sequence (P06493 whole entry, species assumed): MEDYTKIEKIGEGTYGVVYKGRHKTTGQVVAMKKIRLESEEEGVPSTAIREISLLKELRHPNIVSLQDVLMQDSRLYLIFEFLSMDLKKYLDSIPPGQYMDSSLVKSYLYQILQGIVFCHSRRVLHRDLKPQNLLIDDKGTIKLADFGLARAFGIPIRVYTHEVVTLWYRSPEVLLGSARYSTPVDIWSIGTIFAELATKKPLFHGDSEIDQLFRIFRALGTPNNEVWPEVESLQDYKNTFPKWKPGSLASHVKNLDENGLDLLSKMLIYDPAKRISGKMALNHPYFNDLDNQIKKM
# Sequence (P14635 whole entry partner, species assumed): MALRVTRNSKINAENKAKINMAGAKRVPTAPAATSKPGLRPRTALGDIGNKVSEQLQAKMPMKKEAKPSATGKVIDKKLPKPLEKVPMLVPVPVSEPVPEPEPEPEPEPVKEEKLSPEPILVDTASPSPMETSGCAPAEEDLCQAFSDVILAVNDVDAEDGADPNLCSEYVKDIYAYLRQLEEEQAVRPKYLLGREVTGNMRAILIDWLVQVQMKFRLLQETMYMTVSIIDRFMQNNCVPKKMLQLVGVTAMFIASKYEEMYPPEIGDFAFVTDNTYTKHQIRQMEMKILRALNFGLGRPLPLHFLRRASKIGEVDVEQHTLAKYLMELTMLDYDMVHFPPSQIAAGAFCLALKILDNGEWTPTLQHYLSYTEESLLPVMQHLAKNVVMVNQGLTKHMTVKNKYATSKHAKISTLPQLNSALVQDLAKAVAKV
# experimental protocol: CDK1/cyclin B kinase assay (GST-Rb phosphorylation)
pIC50: −log10 of the molar value.
assay metric: pIC50

Answered examples (5):
smiles_representation=Cc1nc(N)sc1-c1ccnc(Nc2cccc(N)c2)n1 target_or_test_system="CDK1/Cyclin B (Homo sapiens, UniProt P06493)" data_value=6.15
smiles_representation=Cc1nc(C)c(-c2ccnc(Nc3cccc(N)c3)n2)s1 target_or_test_system="CDK1/Cyclin B (Homo sapiens, UniProt P06493)" data_value=5.82
smiles_representation=Cc1nc(C)c(-c2ccnc(Nc3ccc(N(C)C)c([N+](=O)[O-])c3)n2)s1 target_or_test_system="CDK1/Cyclin B (Homo sapiens, UniProt P06493)" data_value=6.89
smiles_representation=Cc1nc(C)c(-c2ccnc(Nc3cc(F)cc(F)c3)n2)s1 target_or_test_system="CDK1/Cyclin B (Homo sapiens, UniProt P06493)" data_value=5.26
smiles_representation=Cc1ccc(Nc2nccc(-c3sc(=O)n(C)c3C)n2)cc1I target_or_test_system="CDK1/Cyclin B (Homo sapiens, UniProt P06493)" data_value=5.68

(1) Cc1nc(C)c(-c2ccnc(Nc3ccc(F)cc3)n2)s1
(2) Cc1nc(N(C)C)sc1-c1ccnc(Nc2cccc([N+](=O)[O-])c2)n1
(3) Cc1nc(C)c(-c2ccnc(Nc3ccccc3)n2)s1
Given 3 compounds, produce a descending ranking by pIC50. Answer format: list of labels, ordered as asked.
3, 1, 2
(3: 5.82, 1: 4.77, 2: 4.31)

====

# target or test system: CDK1/Cyclin B (Homo sapiens, UniProt P06493)
# experimental protocol: CDK1/cyclin B kinase assay (GST-Rb phosphorylation);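 further: Enzyme: His-tagged CDK1/Cyclin B co-expressed in baculovirus-infected Sf9 insect cells, purified via metal-chelate chromatography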
assay metric: IC50 (µM)

Use these answered entries as a reference point.
compound="COc1ccc(Nc2nccc(-c3sc(C)nc3C)n2)cc1OC [Compound 125]" data_value=0.25
compound="COc1ccc(Nc2nccc(-c3sc(C)nc3C)n2)cc1 [Compound 26]" data_value=9

(A) Cc1nc(C)c(-c2ccnc(Nc3ccc(F)cc3F)n2)s1 [Compound 9]
(B) Cc1nc(N)sc1-c1ccnc(Nc2cccc(F)c2)n1 [Compound 109]
Min IC50? A | B Write down the label of the entry you select.
B

====

# target or test system: CDK1/Cyclin B (Homo sapiens)
# experimental protocol: CDK1/cyclin B kinase assay (GST-Rb phosphorylation)
assay metric: IC50 (µM)
Respond with the bare value in µM.

molecule="Cc1nc(C)c(-c2ccnc(Nc3cccc([N+](=O)[O-])c3)n2)s1 [Compound 5]" assay_metric=IC50 data_value=17
molecule="Cc1nc(C)c(-c2ccnc(Nc3ccc(C(F)(F)F)cc3)n2)s1 [Compound 15]" assay_metric=IC50 data_value=34
molecule="Cc1nc(C)c(-c2ccnc(Nc3cccc(C#N)c3)n2)s1 [Compound 36]" assay_metric=IC50 data_value=2.5

Alright, here's another molecule for you.
Please give measured IC50 of the following entry: Cc1nc(C)c(-c2ccnc(Nc3ccc(O)cc3)n2)s1 [Compound 28]
1.8

====

# target or test system: CDK1/Cyclin B (Homo sapiens)
# experimental protocol: CDK1/cyclin B kinase assay (GST-Rb phosphorylation)
assay metric: IC50

smiles_representation=CCNc1nc(C)c(-c2ccnc(Nc3cccc([N+](=O)[O-])c3)n2)s1 assay_metric=IC50 data_value="> 100 µM"
smiles_representation=CNc1nc(C)c(-c2ccnc(Nc3cccc(C(F)(F)F)c3)n2)s1 assay_metric=IC50 data_value="> 100 µM"
smiles_representation=Cc1nc(C)c(-c2ccnc(Nc3ccc(C#N)cc3)n2)s1 assay_metric=IC50 data_value="> 50 µM"

Return reported IC50. Input compound: Cc1nc(C)c(-c2ccnc(Nc3cccc(C(F)(F)F)c3)n2)s1
> 100 µM
